The reported numbers originate from PubChem BioAssay (NCI).

System: MDA-MB-468 breast
Assay: NCI-60 one-dose screen, 48 h
Conditions: 10 µM unless noted
Compounds without any hit were thinned out: in the full panel of roughly 83,000, 20% have a hit. The source made the active and inactive calls. How the source made its calls: active means growth percent below 10; inactive means the rest.
Please answer using one outcome listed in YES (active), NO (inactive)

molecule="Cc1cc(C)c2c(c1)N(C)c1ncnc(-n3c(C)nc4cc(C)ccc43)c1CC2C (stereo not given)" group_label=YES

Prompt: State the result this test recorded for CS(=O)(=O)Nc1cc(-c2ccc3ncc(C#N)c(NCc4ccccc4O)c3c2)cnc1Cl .
Response: YES

Prompt: State the result this test recorded for COc1ccc(CN2c3ccccc3Sc3ccccc32)c(C(F)(F)F)c1 .
Response: NO

Prompt: State the result this test recorded for Cc1cc(C)c(C(=O)c2cccs2)c(C)c1 .
Response: NO

Prompt: State the result this test recorded for NC(=O)CC1(O)C=C(Br)C(=O)C(Br)=C1 .
Response: YES

Prompt: State the result this test recorded for NCCSC(C[N+](=O)[O-])c1ccccc1Cl (stereo not given) .
Response: NO

Prompt: State the result this test recorded for CN(CCCCCl)P(=O)(OCc1ccc([N+](=O)[O-])o1)C(F)(F)C[C@H](NC(=O)CNC(=O)c1ccc(N=[N+]=[N-])cc1)C(=O)NCCc1ccc(O)cc1 (stereo not given in full) .
Response: NO

Prompt: State the result this test recorded for CC(C)(C)CC(C)(C)NC(=O)Nc1ncccc1OCc1ccccc1 .
Response: NO

Prompt: State the result this test recorded for CC(=O)c1ccc(NS(=O)(=O)c2cccc(C(=O)Nc3ccc(Br)cc3)c2)cc1 .
Response: NO

Prompt: State the result this test recorded for CS(=O)(=O)c1nnc(-c2ccccc2)s1 .
Response: YES
